Test system: RXF 393 renal
TEST: NCI tumour cell line growth inhibition, 48 h

>  <COMPOUND>
CCOC(=O)c1cnc2c(ccc3[nH]cccc32)c1=O

>  <TGI>
> 100 µM

$$$$
>  <COMPOUND>
C[N+]12CCN(c3ccccc31)c1ccccc12

>  <TGI>
> 10 µM

$$$$
>  <COMPOUND>
Cc1ccc(NC(=O)CSc2nnc(Cc3ccccc3)o2)cc1

>  <TGI>
> 100 µM

$$$$
>  <COMPOUND>
CCCCC(/C=C\COC1CCCCO1)=C/C(=O)OCC (stereo unspecified)

>  <TGI>
> 100 µM

$$$$
>  <COMPOUND>
COc1ccc(-c2nn(-c3ccc(NC(=O)c4cc(Cl)cc(Cl)c4)cc3)cc2-c2ccncc2)cc1Cl

>  <TGI>
1.23 µM

$$$$
>  <COMPOUND>
[N-]=[N+]=Nc1ccc2c(c1)Sc1ccccc1N2CCCCN1CCN(Cc2ccc(C(=O)c3ccc(CSCC(N)C(=O)O)cc3)cc2)CC1 (stereo unspecified)

>  <TGI>
> 100 µM

$$$$

* * *

Test system: HOP-92 NSCLC
TEST: NCI tumour cell line growth inhibition, 48 h
Entries annotated with measured TGI
PARAMETER: TGI

>  <COMPOUND>
C[C@@]1(Cc2ccccc2)C(=O)N2[C@@H](CO)C(c3ccccc3)O[C@]2(C)c2ccccc21 (some centres undefined)

>  <RESULT>
> 100 µM

$$$$
>  <COMPOUND>
O=CNc1ccc(S(=O)(=O)c2ccc(NC=O)cc2)cc1

>  <RESULT>
> 100 µM

$$$$
>  <COMPOUND>
Clc1ccc(CCc2ccncn2)c(Cl)c1

>  <RESULT>
> 100 µM

$$$$
>  <COMPOUND>
COc1cc(OC)c2c(=O)c3c([N+](=O)[O-])cccc3n(C)c2c1

>  <RESULT>
> 100 µM

$$$$
>  <COMPOUND>
CC(=O)Nc1ccc(C(=O)NN2C(=O)C(Cl)C2c2cccc([N+](=O)[O-])c2)cc1 (centres undefined)

>  <RESULT>
> 100 µM

$$$$
>  <COMPOUND>
CC(=O)OCC1OC(n2c(N)c(C#N)c(C)c(C#N)c2=S)C(OC(C)=O)C(OC(C)=O)C1OC(C)=O (centres undefined)

>  <RESULT>
> 100 µM

$$$$
>  <COMPOUND>
COc1cc(C(c2cccc3ccccc23)N2C(=O)CCC2C(=O)O)cc(OC)c1OC (centres undefined)

>  <RESULT>
> 100 µM

$$$$
>  <COMPOUND>
Cc1ccc(OCC2=NC3S/C(=C/c4ccc([N+](=O)[O-])o4)C(=O)N3N2)cc1 (centres undefined)

>  <RESULT>
8.8 µM

$$$$
>  <COMPOUND>
O=C(Nc1cccc(-n2cc(-c3ccncc3)c(-c3ccc(O)c(Cl)c3)n2)c1)c1cc(C(F)(F)F)cc(C(F)(F)F)c1

>  <RESULT>
4.15 µM

$$$$

* * *

Test system: SF-539 CNS
TEST: NCI tumour cell line growth inhibition, 48 h
Entries annotated with measured GI50
PARAMETER: GI50

>  <ENTRY SMILES>
OCc1ccc(N2CCc3cc(F)ccc3C2)cc1Cl

>  <EXPERIMENTAL TARGET>
SF-539 CNS

>  <PARAMETER>
GI50

>  <RESULT>
16.1 µM

$$$$
>  <ENTRY SMILES>
CC(C)(C)NC(=O)[C@H]1CC[C@H]2[C@@H]3CC[C@H]4NC(=O)C=C[C@]4(C)[C@H]3CC[C@]12C

>  <EXPERIMENTAL TARGET>
SF-539 CNS

>  <PARAMETER>
GI50

>  <RESULT>
> 100 µM

$$$$
>  <ENTRY SMILES>
COc1ccc(-c2nn(-c3ccc(NC(=O)c4cc(Cl)cc(Cl)c4)cc3)cc2-c2ccncc2)cc1Cl

>  <EXPERIMENTAL TARGET>
SF-539 CNS

>  <PARAMETER>
GI50

>  <RESULT>
2 µM

$$$$
>  <ENTRY SMILES>
Cc1c(-c2ccc(O)cc2)oc(=O)c2ccc(O)cc12

>  <EXPERIMENTAL TARGET>
SF-539 CNS

>  <PARAMETER>
GI50

>  <RESULT>
36.7 µM

$$$$
>  <ENTRY SMILES>
COc1ccc2nc3cc([N+](=O)[O-])ccc3c(NNc3ccccc3)c2c1

>  <EXPERIMENTAL TARGET>
SF-539 CNS

>  <PARAMETER>
GI50

>  <RESULT>
11.7 µM

$$$$
>  <ENTRY SMILES>
O=C(Nc1ccc(-n2ccc3c(NC(=O)c4ccccc4)nccc32)cc1)Nc1cccc(C(F)(F)F)c1

>  <EXPERIMENTAL TARGET>
SF-539 CNS

>  <PARAMETER>
GI50

>  <RESULT>
1.75 µM

$$$$
>  <ENTRY SMILES>
O=C(Nc1cccc(-n2cc(-c3ccncc3)c(-c3ccc(O)c(Cl)c3)n2)c1)c1cc(C(F)(F)F)cc(C(F)(F)F)c1

>  <EXPERIMENTAL TARGET>
SF-539 CNS

>  <PARAMETER>
GI50

>  <RESULT>
4.78 µM

$$$$

* * *

Entries annotated with measured TGI
System: NCI/ADR-RES ovarian
TEST: NCI tumour cell line growth inhibition, 48 h

>  <COMPOUND>
C/C(=N/O)c1ccc2c(c1)/C(=N/O)c1ccccc1-2

>  <TGI>
48.6 µM

$$$$
>  <COMPOUND>
CC(=O)C1(C)CC(C#N)(C#N)C(C#N)=C1N (configuration not stated)

>  <TGI>
> 100 µM

$$$$
>  <COMPOUND>
C[C@@H]1CCC2C(C)(C)C(/C=C\C=O)C3(C)OC213 (some centres not stated)

>  <TGI>
> 100 µM

$$$$
>  <COMPOUND>
CC1(C(=O)O)C[C@](C)(C(=O)OCc2ccccc2)C[C@](C)(C(=O)OCc2ccccc2)C1 (some centres not stated)

>  <TGI>
> 100 µM

$$$$
>  <COMPOUND>
N=c1ccc2nc(N)nn(O)c-2c1

>  <TGI>
> 100 µM

$$$$
>  <COMPOUND>
CCCCC(/C=C\COC1CCCCO1)=C/C(=O)OCC (configuration not stated)

>  <TGI>
> 100 µM

$$$$
>  <COMPOUND>
COc1ccc(Cn2cc3c(c2)-c2oncc2CC3)cc1OC

>  <TGI>
1.38 µM

$$$$
>  <COMPOUND>
CCO/C(O)=C(/C(=N)N1CCCC1)C(=O)Nc1cccc(Cl)c1

>  <TGI>
> 100 µM

$$$$
>  <COMPOUND>
CCN(CC)C(=S)SC1C(=O)NC(=O)NC1=O

>  <TGI>
> 100 µM

$$$$
>  <COMPOUND>
O=C(Cn1c(=O)oc2ccc(C(=O)c3ccc(F)cc3)cc21)c1ccccc1

>  <TGI>
> 100 µM

$$$$
>  <COMPOUND>
CCOc1ccc2c(c1)CN(Cc1ccc(Cl)cc1)CO2

>  <TGI>
48.9 µM

$$$$
>  <COMPOUND>
O=S(=O)(O)c1ccc2c(N=Nc3ccc(N=Nc4ccccc4)cc3)c(O)c(S(=O)(=O)O)cc2c1

>  <TGI>
> 100 µM

$$$$
>  <COMPOUND>
COc1cc(/C=C/C(=O)N2CCC=CC2=O)cc(OC)c1OC

>  <TGI>
47.9 µM

$$$$
>  <COMPOUND>
Cc1ccc(NC(=O)Nc2c(Cl)cccc2Cl)cn1

>  <TGI>
70.3 µM

$$$$
>  <COMPOUND>
CN1N=C(c2ccccc2)C(C(c2ccccc2[N+](=O)[O-])C2C(=O)N(C)N=C2c2ccccc2)C1=O (configuration not stated)

>  <TGI>
> 100 µM

$$$$
>  <COMPOUND>
Cc1oc(N)c(S(=O)(=O)c2cc3ccccc3n(O)c2=N)c1C

>  <TGI>
> 100 µM

$$$$
>  <COMPOUND>
COc1ccc(NC(=O)CC(=O)NNC(Sc2ccccc2)c2cc(N=Nc3ccc(Br)cc3)ccc2O)cc1 (configuration not stated)

>  <TGI>
> 10 µM

$$$$
>  <COMPOUND>
CC(C)CC1c2[nH]c3ccccc3c2C[C@H]2C(=O)NC(CCCCNC(=O)OC(C)(C)C)C(=O)N12 (some centres not stated)

>  <TGI>
> 100 µM

$$$$
>  <COMPOUND>
O=CNc1ccc(S(=O)(=O)c2ccc(NC=O)cc2)cc1

>  <TGI>
> 100 µM

$$$$
>  <COMPOUND>
CC(C)CC(NP(=O)(O)OC1OC(C)C(O)C(O)C1O)C(=O)NC(Cc1c[nH]c2ccccc12)C(=O)O (configuration not stated)

>  <TGI>
> 100 µM

$$$$
>  <COMPOUND>
CCOCC(=O)N(C)c1cccc2c3c(n(C)c12)CCCCC3

>  <TGI>
> 100 µM

$$$$
>  <COMPOUND>
Cc1nc(-c2cnc(NC(C)C)n(C)c2=O)ccc1Oc1ccnc(-c2cnn(C)c2)c1

>  <TGI>
> 100 µM

$$$$
